Where these numbers come from: PubChem BioAssay (Tox21)

- TARGET UNDER TEST: Nuclear receptor subfamily 1 group I member 2 (Homo sapiens) (UniProt O75469)
- Sequence (O75469 whole entry, looked up): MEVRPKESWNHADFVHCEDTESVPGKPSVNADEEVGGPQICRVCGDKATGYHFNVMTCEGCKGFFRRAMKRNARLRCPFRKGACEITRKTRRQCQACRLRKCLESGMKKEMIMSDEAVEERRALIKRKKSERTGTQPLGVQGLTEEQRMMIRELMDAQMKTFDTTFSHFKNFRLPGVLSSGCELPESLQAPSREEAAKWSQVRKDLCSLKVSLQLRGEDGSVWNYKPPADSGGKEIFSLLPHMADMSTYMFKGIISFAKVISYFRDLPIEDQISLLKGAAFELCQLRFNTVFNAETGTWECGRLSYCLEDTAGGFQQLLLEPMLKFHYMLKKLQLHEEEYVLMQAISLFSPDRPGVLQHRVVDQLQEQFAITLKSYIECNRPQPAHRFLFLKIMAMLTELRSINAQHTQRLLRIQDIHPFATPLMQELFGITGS
- TEST DETAILS: CYP3A4 induction through human pregnane X receptor (PXR) by small molecules, qHTS assay (AID 1346984); note: nearly all actives have a fitted effect of over 40% in size
- MEASUREMENT SETUP: DPX-2 HepG2 PXR, CYP3A4-luciferin luminescence, 24 h; series mostly up to 46.1 µM
Results filed as inconclusive are left out. The source made the active and inactive calls. Calls come from the whole dose curve; as a rule, active = well fitted activation curve with a large enough effect in the repeat runs; inconclusive = weak or mixed curves; inactive = no such curve, though single readings can be large or run the other way.
MEASUREMENT TYPE: outcome

Some compounds with recorded outcome:
COc1cc(O)c(C(=O)c2ccccc2)cc1S(=O)(=O)O :: inactive
Oc1cccc(O)c1 :: inactive
CCCCCCCCOc1ccc(C(=O)c2ccccc2)c(O)c1 :: inactive
Cc1c(N(C)CS(=O)(=O)O)c(=O)n(-c2ccccc2)n1C :: inactive
CCCCNC(=O)NS(=O)(=O)c1ccc(N)cc1 :: inactive

Measured outcome of OC[C@@H](O)[C@@H](O)[C@H](O)[C@H](O)CO : inactive

So, CC(O)COc1ccccc1 (configuration not stated) ? Its outcome was inactive

---

- TEST DETAILS: qHTS assay to identify small molecule agonists of the AP-1 signaling pathway - cell viability counter screen (AID 1159525); note: nearly all actives have a fitted effect of over 55% in size
- MEASUREMENT SETUP: ME-180 (cervical carcinoma) AP-1-bla cells viability, ATP luminescence, 5 h; series mostly up to 76.8 µM
Inconclusive results are not listed. Active and inactive are the calls of the source. The call rests on the fitted dose curve.
MEASUREMENT TYPE: outcome

A selection of reference data follows.
C=CC(=O)NC(C)(C)CS(=O)(=O)O :: inactive
CCN1CCCC1=O :: inactive
COc1ccc(O)cc1 :: inactive
CC(=O)OC/C=C(C)/C=C/C=C(C)/C=C/C1=C(C)CCCC1(C)C :: inactive
COc1ccccc1O :: inactive
Nc1cccc(N)c1 :: inactive

# outcome (compound: C[C@]12C=CC(=O)C=C1CC[C@@H]1[C@@H]2C(=O)C[C@@]2(C)[C@H]1CC[C@]2(O)C(=O)CO ) is inactive

Reported outcome of NCCNc1cccc2ccccc12 : inactive

Reported outcome of C=C(C)C(N)=O : inactive

Reported outcome of CCCCC/C(C=O)=C\c1ccccc1 : inactive

Record CC(=O)CCC(C)C . Reported outcome: inactive

# outcome of C=C(C)OC(C)=O = inactive

Reported outcome of Cc1cccc2ccccc12 : inactive

# outcome (compound: CN(C)C=O ) is inactive

Reported outcome for CC(=O)Oc1ccccc1C(=O)O was inactive

Consider C1CNCCN1 . Its measured outcome is inactive

---

- TARGET UNDER TEST: Vitamin D3 receptor (Homo sapiens) (UniProt P11473)
- Sequence (P11473 whole entry, looked up): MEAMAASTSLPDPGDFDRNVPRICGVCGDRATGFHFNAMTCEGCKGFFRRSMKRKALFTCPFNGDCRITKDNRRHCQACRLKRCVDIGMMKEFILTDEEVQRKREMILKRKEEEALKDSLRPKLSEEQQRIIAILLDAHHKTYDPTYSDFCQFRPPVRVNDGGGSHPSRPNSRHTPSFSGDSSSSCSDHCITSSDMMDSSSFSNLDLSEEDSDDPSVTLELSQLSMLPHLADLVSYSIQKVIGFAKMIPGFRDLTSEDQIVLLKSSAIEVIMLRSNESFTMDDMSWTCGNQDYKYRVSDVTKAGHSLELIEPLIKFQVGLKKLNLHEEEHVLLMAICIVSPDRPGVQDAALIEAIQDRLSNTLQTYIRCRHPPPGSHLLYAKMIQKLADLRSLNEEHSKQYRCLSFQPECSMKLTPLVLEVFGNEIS
- TEST DETAILS: qHTS assay to identify small molecule agonists of the vitamin D receptor (VDR) signaling pathway (AID 743222)
- MEASUREMENT SETUP: HEK293T VDR-UAS-bla, beta-lactamase FRET ratio, 16 h; series mostly up to 63.5 µM
Inconclusive results are not listed. Active and inactive are the calls of the source. Calls follow the shape of the full dose curve.
MEASUREMENT TYPE: outcome

C=C(C)OC(C)=O :: inactive
C=CC(=O)NC(C)(C)CS(=O)(=O)O :: inactive
CCn1cc(C(=O)O)c(=O)c2ccc(C)nc21 :: inactive
COC(=O)C1CCC(C(=O)OC)CC1 (configuration not stated) :: inactive

Okay, next one:
Notebook: O=C(OCc1ccccc1)c1ccccc1 , outcome read as inactive

---

- TARGET UNDER TEST: Cytochrome P450 2C19 (Homo sapiens) (UniProt P33261)
- Sequence (P33261 whole entry, looked up): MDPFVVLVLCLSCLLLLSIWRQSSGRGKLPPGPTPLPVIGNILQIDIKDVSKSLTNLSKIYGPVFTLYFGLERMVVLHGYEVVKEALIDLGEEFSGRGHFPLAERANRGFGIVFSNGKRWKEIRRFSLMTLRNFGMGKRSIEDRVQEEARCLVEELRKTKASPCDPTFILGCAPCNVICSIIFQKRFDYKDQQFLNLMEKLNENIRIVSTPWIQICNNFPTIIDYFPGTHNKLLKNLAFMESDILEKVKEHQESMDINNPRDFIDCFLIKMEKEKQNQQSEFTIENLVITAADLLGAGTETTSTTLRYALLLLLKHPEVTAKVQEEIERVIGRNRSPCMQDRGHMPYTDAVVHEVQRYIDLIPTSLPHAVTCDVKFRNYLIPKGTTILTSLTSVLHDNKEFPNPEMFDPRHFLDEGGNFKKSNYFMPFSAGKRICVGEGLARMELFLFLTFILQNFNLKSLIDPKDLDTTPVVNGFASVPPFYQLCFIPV
- TEST DETAILS: Cytochrome P450 Family 2 Subfamily C Member 19 (CYP2C19) small molecule antagonists: luciferase reporter qHTS assay (AID 1671197); note: nearly all actives have a fitted effect of over 65% in size
- MEASUREMENT SETUP: P450-Glo CYP2C19 enzyme, luciferin luminescence, 1 h; series mostly up to 115 µM
Records with an inconclusive call do not appear. The source made the active and inactive calls. The call rests on the fitted dose curve; in most records, active means well fitted inhibition curve with a large enough effect in the repeat runs; inconclusive means weak or mixed curves; inactive means no such curve, though single readings can be large or run the other way.
Outcome (select one): True (active), False (inactive)

Example results:
CCCCNC(=O)NS(=O)(=O)c1ccc(N)cc1 :: False
CCOCCO :: False
O=[N+]([O-])c1ccc(O)cc1 :: True
CC(C)(C)NCC(O)c1ccc(O)c(CO)c1 (stereo not drawn) :: False
C=CCOC(=O)CC(C)C :: False
NC(=O)c1ccc([N+](=O)[O-])cc1Cl :: False
COCCOCCOC :: False

Let's switch to this molecule now.
Called result for Oc1cccc(O)c1
False

---

- TARGET UNDER TEST: Vitamin D3 receptor (Homo sapiens) (UniProt P11473)
- TEST DETAILS: qHTS assay to identify small molecule antagonists of the vitamin D receptor (VDR) signaling pathway (AID 743223)
- MEASUREMENT SETUP: VDR-UAS-bla HEK293T, beta-lactamase FRET ratio, 16 h; series mostly up to 61 µM
Inconclusive results are not listed. Active and inactive are the calls of the source. Calls come from the whole dose curve; as a rule, active = well fitted inhibition curve with a large enough effect in the signal ratio in the repeat runs (not every such curve was filed as active); inconclusive = weak or mixed curves, or effect the other way; inactive = no such curve, though single readings can be large or run the other way; the % refers to the signal ratio.
MEASUREMENT TYPE: outcome

Solved cases (6 shown):
CCCCOC(=O)CCCCCCCCC(=O)OCCCC :: inactive
C=CCOC(=O)CC(C)C :: inactive
Cc1cccc(Nc2cc(Cl)nc(SCC(=O)O)n2)c1C :: inactive
CC(C)(C)CC(C)(C)c1ccc(O)c(-n2nc3ccccc3n2)c1 :: inactive
O=c1cc[nH]c(=O)[nH]1 :: inactive
COC(=O)C1CCC(C(=O)OC)CC1 (configuration not stated) :: inactive

# evaluate next
Lab note: CCn1cc(C(=O)O)c(=O)c2ccc(C)nc21 gave outcome of inactive

---

- TEST DETAILS: qHTS assay to identify small molecule agonists of the endoplasmic reticulum stress response signaling pathway - cell viability counter screen (AID 1159517);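 note: HeLa cells carrying an ER stress response element beta-lactamase reporter; nearly all actives have a fitted effect of over 50% in size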
- MEASUREMENT SETUP: ESRE-bla HeLa viability, CellTiter-Glo luminescence, 5 h; series mostly up to 61 µM
Results filed as inconclusive are left out. Calls of active or inactive are those of the source. The call rests on the fitted dose curve.
MEASUREMENT TYPE: outcome

Cc1c(N(C)C)c(=O)n(-c2ccccc2)n1C :: inactive
CCCCNC(=O)NS(=O)(=O)c1ccc(N)cc1 :: inactive
c1ccc2[nH]c(-c3cscn3)nc2c1 :: inactive
C=CCOC(=O)CC(C)C :: inactive
COC1=CC(=O)C[C@@H](C)[C@]12Oc1c(Cl)c(OC)cc(OC)c1C2=O :: inactive

Looking up COC(=O)C1CCC(C(=O)OC)CC1 (centres undefined) , I found its outcome recorded as inactive

The compound C#C[C@]1(O)CC[C@H]2[C@@H]3CCc4cc(O)ccc4[C@H]3CC[C@@]21C showed outcome equal to inactive

Value of measured outcome for the entry N[C@@H](Cc1c[nH]c2ccccc12)C(=O)O : inactive

outcome recorded for this compound, C=CC(=O)NC(C)(C)CS(=O)(=O)O , is inactive

Looking up CC1(C)O[C@@H]2[C@@H](CO[C@@]3(COS(N)(=O)=O)OC(C)(C)O[C@@H]23)O1 , I see its outcome listed as inactive

---

- TEST DETAILS: qHTS assay for small molecule agonists of the antioxidant response element (ARE) signaling pathway - cell viability counter screen (AID 743203); note: nearly all actives have a fitted effect of over 55% in size
- MEASUREMENT SETUP: ARE-bla HepG2 viability, CellTiter-Glo luminescence, 16 h; series mostly up to 73.3 µM
Results filed as inconclusive are left out. Calls of active or inactive are those of the source. Calls follow the shape of the full dose curve.
MEASUREMENT TYPE: outcome

Answered examples (5):
COc1cc(C=O)ccc1O :: inactive
CC1=C(/C=C/C(C)=C/C=C/C(C)=C/C(=O)O)C(C)(C)CCC1 :: inactive
C1CNCCN1 :: inactive
c1ccc2[nH]c(-c3cscn3)nc2c1 :: inactive
O=C1OC(c2ccc(O)cc2)(c2ccc(O)cc2)c2ccccc21 :: inactive

Here is another compound to look at.
// C=C(C)C(N)=O : outcome value = inactive

---

- TARGET UNDER TEST: Nuclear receptor subfamily 1 group I member 2 (Homo sapiens) (UniProt O75469)
- TEST DETAILS: Human pregnane X receptor (PXR) small molecule agonists, qHTS assay (AID 1346982); note: nearly all actives have a fitted effect of over 35% in size
- MEASUREMENT SETUP: PXR-Luc HepG2, CYP3A4 luciferase reporter, 24 h; series mostly up to 92.4 µM
Records with an inconclusive call do not appear. Activity calls are given as the source filed them. Calls follow the shape of the dose curve; as a rule, active = well fitted activation curve with a large enough effect in the repeat runs; inconclusive = weak or mixed curves; inactive = no such curve, though single readings can be large or run the other way.
Hello, when you answer, please use one of the following outcomes: active, inactive

Use the examples below as a reference point.
CC1=NN(c2ccccc2)C(=O)C1 :: inactive
COC(=O)c1ccc(C=O)cc1 :: inactive
CC(C)CC(C)CC(O)CC(C)C (stereo not given) :: inactive
COC(=O)c1ccc(O)cc1 :: inactive
OC[C@@H](O)[C@@H](O)[C@H](O)[C@H](O)CO :: inactive

Hi, sorry to bother you, what did the test record for O=C(O)CN(CC(=O)O)CC(=O)O ?
inactive

What was the test verdict on CCOC(=O)C(C)(C)Oc1ccc(Cl)cc1 ?
inactive

Which outcome was entered for the compound CCCCNC(=O)NS(=O)(=O)c1ccc(N)cc1 in this test?
inactive

What outcome does the record of this test show for CCCCOC(=O)CCCCCCCCC(=O)OCCCC ?
inactive

How did this test come out for CC(=O)c1ccc(S(=O)(=O)NC(=O)NC2CCCCC2)cc1 ?
inactive
